Data provenance: patent US6337417B1

System: cockspur (Panicum crus-galli)
Test: Experiment 5 foliage treatment: cockspur
Type: in vivo
Parameters: key: 5: completely killed; 4: seriously injured; 3: considerably injured; 2: somewhat injured; 1: slightly injured; 0: not injured (normally grown)
Conditions: 40 g/10a, foliage spray of wettable powder suspension, evaluated 4 weeks after treatment
Reported Herbicidal Effect cockspur values follow for various molecules
quantity: Herbicidal Effect cockspur

molecule="CCC(=O)Nc1ccc(Cl)c(Cl)c1 [Comparative agentB, Propanil, reference compound]" quantity="Herbicidal Effect cockspur" measured_result=0
molecule="C#CC(C)Oc1cc(N(C(=O)C2=C(C(=O)OC)CCCC2)C(=O)c2cccnc2)c(Cl)cc1Cl (stereo not shown)" quantity="Herbicidal Effect cockspur" measured_result=1
molecule=CCCCOC(=O)c1cc(N(C(=O)C2=C(C(=O)OC)CCCC2)C(=O)c2cccnc2)c(F)cc1Cl quantity="Herbicidal Effect cockspur" measured_result=1
molecule=COC(=O)C1=C(C(=O)N(C(=O)c2cccnc2)c2cc(OC(C)C)c(Cl)cc2F)CCCC1 quantity="Herbicidal Effect cockspur" measured_result=1

====

Reported Herbicidal Effect ichibi values follow for various compounds
Tested on: ichibi (velvetleaf, Abutilon theophrasti)
Assay: Experiment 3 foliage treatment: ichibi
Format: in vivo
Set-up: key: 5: completely killed; 4: seriously injured; 3: considerably injured; 2: somewhat injured; 1: slightly injured; 0: not injured (normally grown)
Conditions: 4 g/10a, 4 weeks after treatment
quantity: Herbicidal Effect ichibi

compound=CCCCOC(=O)C1=C(C(=O)N(C(=O)CC)c2cc(SCC(=O)OC)c(Cl)cc2F)CCCC1 measured_result=5
compound=CCCOC(=O)C1=C(C(=O)N(C(C)=O)c2cc(SCC(=O)OC)c(Cl)cc2F)CCCC1 measured_result=5
compound="CCc1cnc(C2=NC(C)(C(C)C)C(=O)N2)c(C(=O)O)c1 (centres unmarked) [Comparative agentC, Pursuit, reference compound]" measured_result=3
compound=CCOC(=O)C1=C(C(=O)N(C(=O)CC)c2cc(SCC(=O)OC)c(Cl)cc2F)CCCC1 measured_result=5
compound="COC(=O)C1=C(C(=O)N(C(C)=O)c2cc(SC(C)C(=O)OC)c(Cl)cc2F)CCCC1 (centres unmarked)" measured_result=5

====

Reported Herbicidal Effect cockspur values follow for various compounds
Tested on: cockspur (Panicum crus-galli)
Assay: Experiment 2 foliage treatment: cockspur
Assay type: in vivo
Design: key: 5: completely killed; 4: seriously injured; 3: considerably injured; 2: somewhat injured; 1: slightly injured; 0: not injured (normally grown)
Conditions: 40 g/10a, 4 weeks after treatment
quantity: Herbicidal Effect cockspur

compound=CCOC(=O)C1=C(C(=O)N(C(C)=O)c2cc(SCC(=O)OC)c(Cl)cc2F)CCCC1 measured_result=1
compound=CCCCOC(=O)C1=C(C(=O)N(C(=O)CC)c2cc(SCC(=O)OC)c(Cl)cc2F)CCCC1 measured_result=1
compound=COC(=O)CSc1cc(N(C(=O)C2=C(C(=O)OC)CCCC2)C(=O)c2cccc(F)c2)c(F)cc1Cl measured_result=1
compound=CCC(=O)N(C(=O)C1=C(C(=O)OC)CCCC1)c1cc(SCC(=O)OC)c(Cl)cc1F measured_result=1
compound=C#CCOC(=O)C1=C(C(=O)N(C(C)=O)c2cc(SCC(=O)OC)c(Cl)cc2F)CCCC1 measured_result=1
compound=CCCCOC(=O)CSc1cc(N(C(C)=O)C(=O)C2=C(C(=O)OCCCC)CCCC2)c(F)cc1Cl measured_result=1
compound=CCCOC(=O)C1=C(C(=O)N(C(C)=O)c2cc(SCC(=O)OC)c(Cl)cc2F)CCCC1 measured_result=2
compound="COC(=O)C1=C(C(=O)N(C(C)=O)c2cc(SC(C)C(=O)OC)c(Cl)cc2F)CCCC1 (centres unmarked)" measured_result=2
